target: Pim2 kinase (Homo sapiens, UniProt Q9P1W9); test: Pim2 ATP depletion assay; type: biochemical; settings: read-out: IC50 (μM) PIM2;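 note: Luciferase-based luminescent readout of ATP remaining after PIM2 phosphorylates a BAD peptide, final 5 nM enzyme, 4 µM ATP, 10 µM peptide, 2.5% DMSO, run to roughly half ATP consumption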
Sequence (Q9P1W9 whole entry): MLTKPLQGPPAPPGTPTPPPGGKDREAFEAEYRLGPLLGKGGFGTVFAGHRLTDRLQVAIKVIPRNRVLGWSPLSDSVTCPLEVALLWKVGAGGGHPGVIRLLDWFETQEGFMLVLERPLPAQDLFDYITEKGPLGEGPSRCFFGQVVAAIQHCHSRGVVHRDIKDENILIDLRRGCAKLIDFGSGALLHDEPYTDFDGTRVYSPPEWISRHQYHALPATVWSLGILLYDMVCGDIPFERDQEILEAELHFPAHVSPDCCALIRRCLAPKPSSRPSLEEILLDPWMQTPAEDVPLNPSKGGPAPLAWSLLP
Field: IC50. Provide a value for each of the compounds that follow.

Compound	Study system	Value
Nc1nccnc1C(=O)Nc1ccccc1N1CCCC(N)C1 (centres unmarked)	Pim2 kinase (Homo sapiens, UniProt Q9P1W9)	< 1 µM

For each of the compounds below, note its IC50.
1. Nc1nccnc1C(=O)Nc1cc(C(=O)C2CC2)ccc1N1CCNCC1
2. Cc1ccncc1-c1ccc(N)c(C(=O)Nc2cnccc2N2CCC[C@H](N)C2)n1
3. CC(C)NC(=O)c1ccc(F)c(-c2ccc(N)c(C(=O)Nc3cnccc3N3CC[C@@H](F)[C@H](N)C3)n2)c1
4. COC1CCN(c2ccncc2NC(=O)c2nc(-c3c(F)cccc3F)ccc2N)CC1N (centres unmarked)

Result ::
["> 25 µM", "< 1 µM", "< 1 µM", "< 1 µM"]

Count: 5. Required value per item: IC50.
1. Nc1ncc(Br)nc1C(=O)Nc1ccccc1N1CCC(N)CC1
2. Cc1ccc(S(=O)(=O)NC(C)(C)C)cc1-c1ccc(N)c(C(=O)Nc2cnccc2N2CCC[C@H](N)C2)n1
3. CC(=O)c1ccc(N2CCC(N)CC2)c(NC(=O)c2nccnc2N)c1
4. Nc1ccc(-c2ccncc2)nc1C(=O)Nc1cnccc1N1CCC[C@H](N)C1
5. Nc1ccc(-c2cnc(N)c(OCC(F)(F)F)n2)nc1C(=O)Nc1cnccc1N1CCC[C@H](N)C1

Result ::
["< 1 µM", "< 1 µM", "10 to 25 µM", "< 1 µM", "< 1 µM"]

Query :: For the compound shown here, Cc1cnc(C(=O)Nc2cnccc2N2CCCC(N)C2)cn1 (centres unmarked) , give the reported IC50.
Result :: > 25 µM
